B1: PHTF1 (parent)
chain: SRHLNSQVKKTTTRWCHIVRDSDS

# Variants of: B1
# assay.procedure: protein stability index of a GFP-peptide fusion (GPS, HEK-293T) (PSI 1-6); higher = more stable;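 note: lentivirally expressed fusions sorted by FACS into six bins by GFP to DsRed ratio, PSI derived from sequencing read proportions per bin multiplied by bin number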
# assay.conditions: c terminus: a fixed tail appended
readout.name: protein stability index

Would you please look over these solved cases?
Return value of protein stability index for input S22D , no commentary.
1.72

Return value of protein stability index for input S1H , no commentary.
1.46

Return value of protein stability index for input H3V , no commentary.
2.36

Return value of protein stability index for input K9I , no commentary.
1.97

Return value of protein stability index for input V19G , no commentary.
2.4

---
Return value of protein stability index for input H17W , no commentary.
2.62
